# System: HeLa Kyoto
# experiment: thermal stability score vs G1/S (z-score of summed log2 fold changes over temperatures); higher = more thermally stable than in G1/S
# cond: cell cycle stage: mitosis
experimental readout: thermal stability score
Please give the numeric answer without any surrounding text.

Task: What value of thermal stability score has been recorded for this entry: MAASSSGEKEKERLGGGLGVAGGNSTRERLLSALEDLEVLSRELIEMLAISRNQKLLQAGEENQVLELLIHRDGEFQELMKLALNQGKIHHEMQVLEKEVEKRDSDIQQLQKQLKEAEQILATAVYQAKEKLKSIEKARKGAISSEEIIKYAHRISASNAVCAPLTWVPGDPRRPYPTDLEMRSGLLGQMNNPSTNGVNGHLPGDALAAGRLPDVLAPQYPWQSNDMSMNMLPPNHSSDFLLEPPGHNKENEDDVEIMSTDSSSSSSESD [MED4]
Output: -1.18

Task: What value of thermal stability score has been recorded for this entry: MENHKSNNKENITIVDISRKINQLPEAERNLLENGSVYVGLNAALCGLIANSLFRRILNVTKARIAAGLPMAGIPFLTTDLTYRCFVSFPLNTGDLDCETCTITRSGLTGLVIGGLYPVFLAIPVNGGLAARYQSALLPHKGNILSYWIRTSKPVFRKMLFPILLQTMFSAYLGSEQYKLLIKALQLSEPGKEIH [TMEM126A]
Output: -0.978

Task: What value of thermal stability score has been recorded for this entry: MAQRMTTQLLLLLVWVAVVGEAQTRIAWARTELLNVCMNAKHHKEKPGPEDKLHEQCRPWRKNACCSTNTSQEAHKDVSYLYRFNWNHCGEMAPACKRHFIQDTCLYECSPNLGPWIQQVDQSWRKERVLNVPLCKEDCEQWWEDCRTSYTCKSNWHKGWNWTSGFNKCAVGAACQPFHFYFPTPTVLCNEIWTHSYKVSNYSRGSGRCIQMWFDPAQGNPNEEVARFYAAAMSGAGPWAAWPFLLSLALMLLWLLS [FOLR1]
Output: -1.43

Task: What value of thermal stability score has been recorded for this entry: MAPWTLWRCCQRVVGWVPVLFITFVVVWSYYAYVVELCVFTIFGNEENGKTVVYLVAFHLFFVMFVWSYWMTIFTSPASPSKEFYLSNSEKERYEKEFSQERQQEILRRAARALPIYTTSASKTIRYCEKCQLIKPDRAHHCSACDSCILKMDHHCPWVNNCVGFSNYKFFLLFLLYSLLYCLFVAATVLEYFIKFWTNELTDTRAKFHVLFLFFVSAMFFISVLSLFSYHCWLVGKNRTTIESFRAPTFSYGPDGNGFSLGCSKNWRQVFGDEKKYWLLPIFSSLGDGCSFPTRLVGMDPEQASVTNQNEYARSSGSNQPFPIKPLSESKNRLLDSESQWLENGAEEGIVKSGTNNHVTVAIEN [ZDHHC20]
Output: -1.86

Task: What value of thermal stability score has been recorded for this entry: MAETEERSLDNFFAKRDKKKKKERSNRAASAAGAAGSAGGSSGAAGAAGGGAGAGTRPGDGGTASAGAAGPGAATKAVTKDEDEWKELEQKEVDYSGLRVQAMQISSEKEEDDNEKRQDPGDNWEEGGGGGGGMEKSSGPWNKTAPVQAPPAPVIVTETPEPAMTSGVYRPPGARLTTTRKTPQGPPEIYSDTQFPSLQSTAKHVESRKDKEMEKSFEVVRHKNRGRDEVSKNQALKLQLDNQYAVLENQKSSHSQYN [CDV3]
Output: -4.45

====

# System: HeLa Kyoto
# experiment: melting temperature (median over replicates), in situ; higher = more thermally stable
# cond: cell cycle stage: G1/S
Would you kindly list melting temperature for each of these sequences?
# unit: °C | format: bare number

Task: What value of melting temperature has been recorded for this entry: MAGNFDSEERSSWYWGRLSRQEAVALLQGQRHGVFLVRDSSTSPGDYVLSVSENSRVSHYIINSSGPRPPVPPSPAQPPPGVSPSRLRIGDQEFDSLPALLEFYKIHYLDTTTLIEPVSRSRQGSGVILRQEEAEYVRALFDFNGNDEEDLPFKKGDILRIRDKPEEQWWNAEDSEGKRGMIPVPYVEKYRPASASVSALIGGNQEGSHPQPLGGPEPGPYAQPSVNTPLPNLQNGPIYARVIQKRVPNAYDKTALALEVGELVKVTKINVSGQWEGECNGKRGHFPFTHVRLLDQQNPDEDFS [CRK]
Output: 50.6

Task: What value of melting temperature has been recorded for this entry: MKFLLDILLLLPLLIVCSLESFVKLFIPKRRKSVTGEIVLITGAGHGIGRLTAYEFAKLKSKLVLWDINKHGLEETAAKCKGLGAKVHTFVVDCSNREDIYSSAKKVKAEIGDVSILVNNAGVVYTSDLFATQDPQIEKTFEVNVLAHFWTTKAFLPAMTKNNHGHIVTVASAAGHVSVPFLLAYCSSKFAAVGFHKTLTDELAALQITGVKTTCLCPNFVNTGFIKNPSTSLGPTLEPEEVVNRLMHGILTEQKMIFIPSSIAFLTTLERILPERFLAVLKRKISVKFDAVIGYKMKAQ [HSD17B11]
Output: 55.1

Task: What value of melting temperature has been recorded for this entry: MDLLFGRRKTPEELLRQNQRALNRAMRELDRERQKLETQEKKIIADIKKMAKQGQMDAVRIMAKDLVRTRRYVRKFVLMRANIQAVSLKIQTLKSNNSMAQAMKGVTKAMGTMNRQLKLPQIQKIMMEFERQAEIMDMKEEMMNDAIDDAMGDEEDEEESDAVVSQVLDELGLSLTDELSNLPSTGGSLSVAAGGKKAEAAASALADADADLEERLKNLRRD [CHMP2A]
Output: 53

====

Would you kindly list melting temperature for each of these sequences?
# System: HeLa Kyoto
# experiment: melting temperature (median over replicates), in situ; higher = more thermally stable
# cond: cell cycle stage: mitosis
# unit: °C | format: bare number

Task: // fetch HeLa Kyoto melting temperature for MDIRPNHTIYINNMNDKIKKEELKRSLYALFSQFGHVVDIVALKTMKMRGQAFVIFKELGSSTNALRQLQGFPFYGKPMRIQYAKTDSDIISKMRGTFADKEKKKEKKKAKTVEQTATTTNKKPGQGTPNSANTQGNSTPNPQVPDYPPNYILFLNNLPEETNEMMLSMLFNQFPGFKEVRLVPGRHDIAFVEFENDGQAGAARDALQGFKITPSHAMKITYAKK [SNRPB2]
Output: 53.2

Task: // fetch HeLa Kyoto melting temperature for MALDFLAGCAGGVAGVLVGHPFDTVKVRLQVQSVEKPQYRGTLHCFKSIIKQESVLGLYKGLGSPLMGLTFINALVFGVQGNTLRALGHDSPLNQFLAGAAAGAIQCVICCPMELAKTRLQLQDAGPARTYKGSLDCLAQIYGHEGLRGVNRGMVSTLLRETPSFGVYFLTYDALTRALGCEPGDRLLVPKLLLAGGTSGIVSWLSTYPVDVVKSRLQADGLRGAPRYRGILDCVHQSYRAEGWRVFTRGLASTLLRAFPVNAATFATVTVVLTYARGEEAGPEGEAVPAAPAGPALAQPSSL [SLC25A29]
Output: 52.3

Task: // fetch HeLa Kyoto melting temperature for MREYKLVVLGSGGVGKSALTVQFVQGIFVEKYDPTIEDSYRKQVEVDAQQCMLEILDTAGTEQFTAMRDLYMKNGQGFALVYSITAQSTFNDLQDLREQILRVKDTDDVPMILVGNKCDLEDERVVGKEQGQNLARQWNNCAFLESSAKSKINVNEIFYDLVRQINRKTPVPGKARKKSSCQLL [RAP1B]
Output: 58.5

Task: // fetch HeLa Kyoto melting temperature for MSQATKRKHVVKEVLGEHIVPSDQQQIVRVLRTPGNNLHEVETAQGQRFLVSMPSKYRKNIWIKRGDFLIVDPIEEGEKVKAEISFVLCKDHVRSLQKEGFWPEAFSEVAEKHNNRNRQTQPELPAEPQLSGEESSSEDDSDLFVNTNRRQYHESEEESEEEEAA [EIF1AD]
Output: 53.3

Task: // fetch HeLa Kyoto melting temperature for MAGNFDSEERSSWYWGRLSRQEAVALLQGQRHGVFLVRDSSTSPGDYVLSVSENSRVSHYIINSSGPRPPVPPSPAQPPPGVSPSRLRIGDQEFDSLPALLEFYKIHYLDTTTLIEPVSRSRQGSGVILRQEEAEYVRALFDFNGNDEEDLPFKKGDILRIRDKPEEQWWNAEDSEGKRGMIPVPYVEKYRPASASVSALIGGNQEGSHPQPLGGPEPGPYAQPSVNTPLPNLQNGPIYARVIQKRVPNAYDKTALALEVGELVKVTKINVSGQWEGECNGKRGHFPFTHVRLLDQQNPDEDFS [CRK]
Output: 51.5

Task: // fetch HeLa Kyoto melting temperature for MADKQISLPAKLINGGIAGLIGVTCVFPIDLAKTRLQNQQNGQRVYTSMSDCLIKTVRSEGYFGMYRGAAVNLTLVTPEKAIKLAANDFFRHQLSKDGQKLTLLKEMLAGCGAGTCQVIVTTPMEMLKIQLQDAGRIAAQRKILAAQGQLSAQGGAQPSVEAPAAPRPTATQLTRDLLRSRGIAGLYKGLGATLLRDVPFSVVYFPLFANLNQLGRPASEEKSPFYVSFLAGCVAGSAAAVAVNPCDVVKTRLQSLQRGVNEDTYSGILDCARKILRHEGPSAFLKGAYCRALVIAPLFGIAQVVYFLGIAESLLGLLQDPQA [SLC25A22]
Output: 55.4
